- methodNotes: in vitro
- conditionLabel: dog
measuredMetric: CC50

{"molecule": "CC1SC2(CCC(C(C)(C)C)CC2)N(NC(=O)c2ccc(C(C)(C)C)cc2)C1=O (stereo not drawn) [Compound 2f]", "CC50": "> 100 µM"}

Parameter requested: CC50. Apply to each item below.
1. CC(N)C12CC3CC(CC(C3)C1)C2 (stereo not drawn) [Rimantadine, reference compound]
2. CC(C)(C)c1ccc(C(=O)NN2C(=O)CSC23CCCCC3)cc1 [Compound 1a]
3. CCC(CC)O[C@@H]1C=C(C(=O)O)C[C@H](N)[C@H]1NC(C)=O [Oseltamivir carboxylate, reference compound]

Ans.
> 200 µM
> 100 µM
> 100 µM

Origin of values: paper PMC11931604
